# Tested on: MDA-MB-435 melanoma
# protocol notes: NCI-60 one-dose screen, 48 h
# condition details: 10 µM unless noted
This is part of a sample that, as a whole, favours compounds with a hit. Of some 83,000 tested, about 20% had one in any assay. Calls of active or inactive are those of the source. How the source made its calls: active means growth percent below 10; inactive means the rest.
Output constraint: value belongs to active, inactive

- molecule: "O=C1NC(=O)C(=Cc2cn(CCCCCCn3c4ccccc4c(=O)c4ccccc43)c3ccccc23)C(=O)N1"
  label: "inactive"
- molecule: "CC[C@H](C)[C@H](NC(=O)[C@H]1CCCCN1C)C(=O)N(C)[C@H](C[C@@H](OC(C)=O)c1nc(C(=O)NC23CC(C(=O)OC)(C2)C3)cs1)C(C)C"
  label: "active"
- molecule: "CCOP(=O)(Nc1ccc2c(c1)/C(=N/NC(N)=S)c1ccccc1-2)OCC"
  label: "inactive"

Hey, what did the test say about "CCn1c2ccccc2c2cc(C(=O)c3cccc4c3CCCN4)ccc21" ?
inactive

Hey, what did the test say about "O=C(O)C(Cl)(Cl)C(F)(F)F" ?
inactive

Hey, what did the test say about "CC[C@H](NC(=O)[C@H]1CCCCN1C)C(=O)N(C)[C@H](C[C@@H](OC(C)=O)c1nc(C(=O)N[C@@H](Cc2ccccc2)C[C@H](C)C(=O)O)cs1)C(C)C" ?
active

Hey, what did the test say about "O=C1NC(=O)C(=Cc2cn(C(=O)c3ccccc3)c3ccccc23)C(=O)N1" ?
inactive

Hey, what did the test say about "C=CC[Se]C(=O)c1ccccc1OC(C)=O" ?
inactive

Hey, what did the test say about "CCCC[C@H](NC(=O)[C@H]1CCCCN1C)C(=O)N(C)[C@H](C[C@@H](OC(C)=O)c1nc(C(=O)N[C@@H](Cc2ccccc2)C[C@H](C)C(=O)OCC)cs1)C(C)C" ?
active

Hey, what did the test say about "CC[C@H](C)[C@H](NC(=O)c1cccn1C)C(=O)N(C)[C@H](C[C@@H](OC(C)=O)c1nc(C(=O)N[C@@H](Cc2ccccc2)C[C@H](C)C(=O)OC)cs1)C(C)C" ?
active

Hey, what did the test say about "C[C@]12C[C@@H](CO)[C@H](O)C[C@@H]1CC[C@@H]1[C@@H]2CC[C@]2(C)[C@@H](O)CC[C@@H]12" ?
inactive

Hey, what did the test say about "Nc1c(F)cc(-c2nc3cc(F)ccc3[se]2)cc1Br" ?
inactive

Hey, what did the test say about "COC1=CC(=O)O[C@@H](/C=C/c2ccc3c(c2)OCO3)C1" ?
inactive

Hey, what did the test say about CNC12C3C4C1C1C2C3C41C(=O)N[C@H](C(=O)N(C)[C@H](C[C@@H](OC(C)=O)c1nc(C(=O)N[C@@H](Cc2ccccc2)C[C@H](C)C(=O)OC)cs1)C(C)C)C1CC1 (some centres not stated) ?
active

Hey, what did the test say about O=C1CCC2(O)[C@@H]3Cc4ccc(O)c5c4[C@]2(CCN3Cc2ccoc2)C1O5 (some centres not stated) ?
inactive

Hey, what did the test say about "CC1=C([Te]c2ccc(O)cc2)C(=O)c2ccccc2C1=O" ?
active

Hey, what did the test say about NC1CC2CCCCC2CC1(O)c1ccccc1 (configuration not stated) ?
inactive

====

# Tested on: A498 renal
# protocol notes: NCI-60 one-dose screen, 48 h (100 = growth as untreated, 0 = no growth, -100 = all killed)
# condition details: 10 µM
# Description: Growth inhibition of the A498 human tumor cell line is measured as a screen for anti-cancer activity. Cells are grown in 96 well plates and exposed to the test compound for 48 hours. Compounds are tested at a single concentration, which is 10^-5 M for most compounds. The reported endpoint is percent growth (GI% or GIPRCNT), where numbers from 0 - 100% represent growth inhibition, and numbers from -100% - 0 represent cell death. For example, a value of 40 represents 60% growth inhibition. […]
Compounds without any hit were thinned out: in the full panel of roughly 83,000, 20% have a hit.
Can you tell me growth for the items I'm about to list?
Answers are plain numbers, in %.

The cases that follow already have their growth on record.
- sample smiles: "CC(C)(NC(=O)O[C@@H]1CN2CCC1CC2)c1csc(-c2ccc(F)cc2)n1"
  experimental target: "A498 renal"
  unit text: "%"
  measured value: 90.6
- sample smiles: "N#C[S-].[Au+].c1ccc(CN2[CH-]N(Cc3ccccc3)C(c3ccccc3)=C2c2ccccc2)cc1"
  experimental target: "A498 renal"
  unit text: "%"
  measured value: -37.3
- sample smiles: "CCC(=O)Nc1ccc(Cl)c(Cl)c1"
  experimental target: "A498 renal"
  unit text: "%"
  measured value: 89.7
- sample smiles: "Clc1cccc(N2COOC3(OOC2)C2CC4CC(C2)CC3C4)c1"
  experimental target: "A498 renal"
  unit text: "%"
  measured value: 110

Continue with the next compound.
growth for A498 renal with input "COC(=O)[C@@]1(C)CC[C@]2(C)CC[C@]3(C)C4=CC(=O)c5c(cc(O)c(O)c5C)[C@]4(C)CC[C@@]3(C)[C@@H]2C1" equals 57.1
